System: DMS-114 human SCLC cell line
Test: In vitro tumor cell growth inhibition, cell count after 3 days
Assay type: cell-based
Settings: DMS-114 SCLC cells, 3 days, 35° C.; listed as COTI-4 (1B); read-out: IC50
measured_parameter: IC50 (nM)
A number alone suffices; assume nM.

query: Sample `CN1CCN(C(=S)NN=C(c2ccccn2)c2ccccn2)CC1` — what was its IC50?
result: 30

---

Tested on: HT29 human colon cancer cell line
Test: In vitro IC50 against cancer cell lines
Format: cell-based
Conditions: HT-29, 72 h, HT29 colorectal cancer cells, 3 days, 35° C.
measured_parameter: IC50 (µM)
A number alone suffices; assume µM.

query: Sample CN1CCN(C(=S)NN=C(c2ccccn2)c2ccccn2)CC1 [Formula 1B] — what was its IC50?
result: 0.083
